Hello, the source for this data is PubChem BioAssay AID1347418, in case you need it.

- SYSTEM_UNDER_TEST: Sulfhydryl oxidase 1 (Homo sapiens)
- PROTOCOL_NOTES: QSOX1 enzyme inhibitors, primary screen, biochemical, ROS-Glo H2O2 luminescence, HTS (AID 1347418)
- TEST_CONTEXT: recombinant QSOX1, ROS-Glo H2O2 luminescence; at 12.5 µM; hits give high values; active = any value above zero
Among all 1,300 compounds or so, about 750 (58%) were called active. This is one part of the list.
Just give me one of these, please: active, inactive

Solved entries (count: 3):
In [3]: df
Out[3]:
                                   compound  category_label
0  CN1CCCC1CCOC(C)(c1ccccc1)c1ccc(Cl)cc1 (stereo not drawn)          active
1  O=C1CC2(CCCC2)CC(=O)N1CCCCN1CCN(c2ncccn2)CC1          active
2               CCN(CC)C(=O)c1ccc(O)c(OC)c1          active

Would you kindly look at the next entry?
Kindly provide the recorded test outcome for the following compound: CC(C)(C(=O)O)c1ccc(C(O)CCCN2CCC(C(O)(c3ccccc3)c3ccccc3)CC2)cc1 (stereo not drawn)
inactive
